Here the recorded Percent Mortality is given for each entry.
- Test system: tobacco budworm (Heliothis virescens [Fabricius])
- assay summary: surface-treated diet test against tobacco budworm
- Type: in vivo
- stated conditions: 0.25 millimolar candidate insecticide on the surface of the diet; second instar larvae; five-day exposure; mortality compared to the total number of insects infested
reported endpoint: Percent Mortality

> print(dat)
                                    molecule  result
 1  CC(C)Cc1cn(CCOc2c(Cl)cc(OCC=C(Cl)Cl)cc2Cl)nn1 [Compound 1-6]      0%
 2  ClC(Cl)=CCOc1cc(Cl)c(OCCn2cc(-c3cccc(Cl)c3)nn2)c(Cl)c1 [Compound 1-12]    100%
 3  ClC(Cl)=CCOc1cc(Cl)c(OCCn2cnc(-c3ccccc3)c2)c(Cl)c1 [Compound 2-1]    100%
 4  FC(F)(F)c1ccc(-c2cn(CCCOc3c(Cl)cc(OCC=C(Cl)Cl)cc3Cl)nn2)cc1 [Compound 1-9]    100%
 5  ClC(Cl)=CCOc1cc(Cl)c(OCCn2cc(Cc3ccccc3)nn2)c(Cl)c1 [Compound 1-4]    100%
 6  ClC(Cl)=CCOc1cc(Cl)c(OCCn2nnc(-c3ccccc3Cl)n2)c(Cl)c1 [Compound 7-55]    100%
 7  ClC(Cl)=CCOc1cc(Cl)c(OCCn2cc(-c3ccc(Cl)c(Cl)c3)nn2)c(Cl)c1 [Compound 1-3]    100%
 8  FC(F)(F)c1cccc(-c2noc(COc3c(Cl)cc(OCC=C(Cl)Cl)cc3Cl)n2)c1 [Compound 14-54]    100%
 9  ClC(Cl)=CCOc1cc(Cl)c(OCCn2nnc(-c3cccc(Cl)c3)n2)c(Cl)c1 [Compound 7-56]    100%
10  FC(F)(F)c1ccc(-c2cn(CCOc3c(Cl)cc(OCC=C(Cl)Cl)cc3Cl)nn2)nc1 [Compound 1-18]    100%
11  Fc1ccc(-c2cn(CCOc3c(Cl)cc(OCC=C(Cl)Cl)cc3Cl)nn2)c(F)c1 [Compound 1-15]    100%
12  FC(F)(F)c1ccc(-c2n[nH]c(CCOc3c(Cl)cc(OCC=C(Cl)Cl)cc3Cl)n2)cc1 [Compound 8-2]    100%
13  FC(F)(F)c1ccc(OCc2cn(CCOc3c(Cl)cc(OCC=C(Cl)Cl)cc3Cl)nn2)cc1 [Compound 1-69]     17%
14  FC(F)(F)c1ccc(-c2nnn(CCOc3c(Cl)cc(OCC=C(Cl)Cl)cc3Cl)n2)cc1 [Compound 7-2]    100%
15  ClC(Cl)=CCOc1cc(Cl)c(OCCn2cc(-c3ccc(Cl)cc3Cl)nn2)c(Cl)c1 [Compound 1-8]      0%
16  ClC(Cl)=CCOc1cc(Cl)c(OCCn2nnc(-c3ccccc3)n2)c(Cl)c1 [Compound 7-1]    100%
17  FC(F)(F)c1cccc(-c2nnn(CCOc3c(Cl)cc(OCC=C(Cl)Cl)cc3Cl)n2)c1 [Compound 7-54]    100%

###

- Tested on: tobacco budworm (Heliothis virescens [Fabricius])
- assay summary: surface-treated diet test against tobacco budworm
- Assay type: in vivo
- stated conditions: 0.25 millimolar candidate insecticide on the surface of the diet; second instar larvae; five-day exposure; mortality compared to the total number of insects infested
- Description: Candidate insecticides were evaluated for activity against the tobacco budworm (Heliothis virescens [Fabricius]) in a surface-treated diet test. […] After the five-day exposure period insecticidal activity for each rate of application of candidate insecticide was assessed as percent inhibition of insect weight relative to the weight of insects from untreated controls, and percent mortality when compared to the total number of insects infested. […]
reported endpoint: Percent Mortality (%)

> print(dat)
                                   compound  reported.endpoint  quantitative.readout
1  CC(C)(C)c1cn(CCOc2c(Cl)cc(OCC=C(Cl)Cl)cc2Cl)nn1 [Compound 1-7]  Percent Mortality                   100
2  ClC(Cl)=CCOc1cc(Cl)c(OCCn2cc(-c3ccc(Oc4ccccc4)cc3)nn2)c(Cl)c1 [Compound 1-17]  Percent Mortality                    67
3  FC(F)(F)c1ccc(-c2cn(CCOc3c(Cl)cc(OCC=C(Cl)Cl)cc3Cl)nn2)cc1 [Compound 1-1]  Percent Mortality                   100
4  CN(C)c1ccc(-c2cn(CCOc3c(Cl)cc(OCC=C(Cl)Cl)cc3Cl)nn2)cc1 [Compound 1-16]  Percent Mortality                    67
